compound: COc1ccc(CS(=O)(=O)/C(=C/c2c(OC)cc(OC)cc2OC)C(=O)c2ccc(OC)cc2)cc1
melting point: 60 to 62 °C
--
compound: CCS(=O)(=O)c1cc2c(cc1OC)CCn1c3c(c(-c4cncs4)c1-2)CCCCN(C(C)(C)C)C3=O
melting point: 258 to 260 °C
--
compound: CSCC(C)(C)C(=O)N(C)c1cnc(-c2cncc(F)c2)s1
melting point: 98 to 102 °C
--
compound: CC(C)OC(=O)c1nsc2ccc(-n3c(=O)cc(C(F)(F)F)n(C)c3=O)cc12
melting point: 94 to 97 °C
--
compound: COc1ccc(C(=O)Nc2ccccc2)cc1NCc1cccc(C)c1
melting point: 184 to 185 °C
--
compound: CN1C(=S)NN2CCCC21c1ccccc1 (centres undefined)
melting point: 148 to 151 °C
--
compound: O=C(O)C=CC12CC(c3ccccc31)c1ccccc12
melting point: 220 to 222 °C
--
compound: CC1(C)CCC(C)(C)c2cc(C(C)(O)COc3ccc(C(=O)O)c(O)c3)ccc21 (centres undefined)
melting point: 170 to 171 °C
--
compound: Cc1c(C)c(N2CCN(c3ccc(S(C)(=O)=O)cc3)CC2)c(C)c2c1OC(C)C2 (centres undefined)
melting point: 228 to 233 °C

---

The reader will find reported melting point values listed item by item below.
endpoint-name: melting point

compound: COC(=O)c1ccc(CC(C)NCC(O)c2ccc(O)c(CO)c2)cc1OC (stereo not given)
endpoint-name: melting point
value: 64 to 71 °C

compound: CCCCCCCCCCCCCCCc1ccc(C=O)c(O)c1
endpoint-name: melting point
value: 50 to 54 °C

compound: CC(C)(C)OC(=O)N1CCn2c(c(C(N)=O)c(Cl)c2C2CC2)C1
endpoint-name: melting point
value: 102 to 104 °C

compound: NC(=O)Oc1ccccc1CCCCC#CCSCC#CCCCCc1ccccc1OC(N)=O
endpoint-name: melting point
value: 63 °C

compound: CON=Cc1ccc(-c2cc(F)cc(F)c2NC(=O)c2c(C)nn(C)c2F)cc1
endpoint-name: melting point
value: 164 to 167 °C

compound: CNC(=O)[C@H](NC(=O)c1ccc(F)cc1C(F)(F)F)[C@@H](CNC(C)=O)c1ccccc1 (racemic)
endpoint-name: melting point
value: 199 °C

compound: CCCCCCCC/C=C\CCCCCCCC(=O)Nc1nc(CC(=O)O)cs1
endpoint-name: melting point
value: 106 to 108 °C

compound: Cc1cccc(C(Cl)=NNc2ccccc2)c1
endpoint-name: melting point
value: 66 to 67 °C

compound: COc1ccc(-c2[nH]cnc2-c2cc(OC)c(O)c(OC)c2)cc1O
endpoint-name: melting point
value: 172 to 173 °C

compound: CCCCC1(C2CCCC2)Cc2cc(OCC(=O)O)c(Cl)c(Cl)c2C1=O (stereo not given)
endpoint-name: melting point
value: 173 to 174 °C

compound: CC(=O)c1cc2c(cc1C=O)C(C)(C)CCC2(C)C
endpoint-name: melting point
value: 116 °C

compound: O=S(=O)(Nc1cnc(-n2ccnc2)nc1NCc1ccc(Br)cc1)c1ccc(Cl)cc1
endpoint-name: melting point
value: 183 to 185 °C

compound: Cn1ncc(CN2C(=O)c3ccccc3C2=O)c1-c1ccc(Cl)cc1C(=O)c1ccccc1F
endpoint-name: melting point
value: 153 to 155 °C

compound: Clc1cccc2c1ccn2Cc1ccccc1
endpoint-name: melting point
value: 58 to 60 °C

compound: CCOC(=O)/C=C/c1cc(-c2ccc(C)cc2)n(-c2ccc(S(N)(=O)=O)cc2)n1
endpoint-name: melting point
value: 167 to 171 °C

compound: O=c1cc(C(F)(F)F)[nH]c(=O)n1-c1cc([N+](=O)[O-])c(Cl)cc1F
endpoint-name: melting point
value: 204 °C

compound: COc1ccc(-c2nc3cnccc3[nH]2)c(OCC#N)c1
endpoint-name: melting point
value: 198 °C

compound: NC(=O)c1c(F)ccc(F)c1N
endpoint-name: melting point
value: 121 to 123 °C

compound: O=[N+]([O-])c1ccc(OCCN2CCN(c3cc(Cl)nnc3Cl)CC2)cc1
endpoint-name: melting point
value: 128 to 129 °C

compound: CCCCCCCCCCCCCCOc1ccc(CNc2ccc(CO)cc2)cc1
endpoint-name: melting point
value: 85 to 87 °C

compound: CCCCCCCN(C(=O)Nc1ccccc1CCc1cc(C(C)(C)C)c(O)c(C(C)(C)C)c1)C1CCCCCC1
endpoint-name: melting point
value: 70 to 72 °C

compound: COC(=O)C(C(=O)OC)c1cccc2c1NC(=O)C2=O
endpoint-name: melting point
value: 137 to 140 °C

compound: Cn1cc(C(=O)NCc2ccc(Cl)cc2)c(=O)c2cc(I)ccc21
endpoint-name: melting point
value: 205 to 208 °C

compound: CCOC(=O)CSc1nc(Cl)cc(NN=Cc2ccc(F)cc2)n1
endpoint-name: melting point
value: 146 to 149 °C

compound: CCOC(=O)C1=C(C)NC(C)=C(C(=O)OC)C1c1cccc(N)c1 (single isomer, unassigned; (-))
endpoint-name: melting point
value: 173 to 175 °C

compound: Cn1cnc(COc2nn3c(-c4ccccc4)nnc3cc2-c2cccs2)n1
endpoint-name: melting point
value: 237 to 239 °C

compound: NC(=O)N(O)Cc1ccc(Br)cc1
endpoint-name: melting point
value: 157 to 159 °C

compound: C[C@@H]1Cc2ccsc2[C@H](C)N1CCNC(=O)c1ccc(NC(=O)C(F)(F)F)cc1 (relative stereo)
endpoint-name: melting point
value: 174 to 177 °C

compound: CCOCc1nc2c(N)ncc(C)c2n1CCCCNS(C)(=O)=O
endpoint-name: melting point
value: 173 to 175 °C

compound: COc1ccc2c(c1)c(-c1cc3c(-c4c(C)noc4C)ccnc3[nH]1)cn2C
endpoint-name: melting point
value: 254 to 255 °C

compound: O=C1CC(=C[N+](=O)[O-])Nc2ccc(Cl)cc2N1c1ccccc1
endpoint-name: melting point
value: 248 to 251 °C

compound: CCCCCCCCCC(O)CNCCNCC(O)CCCCCCCCC (stereo not given)
endpoint-name: melting point
value: 130 to 138 °C

compound: O=C(Nc1n[nH]c(=S)s1)N[C@@H](Cc1ccccc1)C(=O)N1CCN(c2ncccn2)CC1
endpoint-name: melting point
value: 235 to 237 °C

compound: Cc1cc(O)ccc1-n1cc(C(=O)O)c(=O)cc1C1CCC(N(C)C)CC1 (stereo not given)
endpoint-name: melting point
value: 207 to 215 °C

compound: COc1ccc([C@H](Sc2ccccc2N)[C@@H](O)C(N)=O)cc1
endpoint-name: melting point
value: 110 to 112 °C

compound: COc1ccc2[nH]c(-c3n[nH]c4ccsc34)cc2n1
endpoint-name: melting point
value: 234 to 236 °C

compound: CCOC(=O)c1ccc(-c2ccc(-c3ccccc3OCOC)c(-c3ccc4c(c3)C(C)(C)CCC4(C)C)c2)cc1
endpoint-name: melting point
value: 132 to 135 °C

compound: O=C(O)/C=C/c1ccc(Oc2c(-c3ccccc3)c(C3CC3)cc3cc(O)ccc23)cc1
endpoint-name: melting point
value: 242 to 243 °C

compound: COC(=O)C(O)NC(=O)OC(C)(C)C (stereo not given)
endpoint-name: melting point
value: 96 to 97 °C

compound: CCN(CC)C(=O)n1cnc(S(=O)(=O)c2ccccc2OCC(F)(F)F)n1
endpoint-name: melting point
value: 134 to 135 °C

---

The reader will find reported melting point values listed item by item below.

compound: CNN(NC)C(=O)Nc1cccc2c1C(=O)c1c-2n[nH]c1-c1ccc(C)s1
melting point: > 280 °C

compound: CCOc1ccc(C(=O)OC)cc1C(N)=O
melting point: 159 to 161 °C

compound: CC1=CCC2C(=O)N(c3ccccc3)C(=O)C2C1 (stereo not given)
melting point: 92 to 93 °C

compound: CC(C)Nc1ccccc1C(=O)O
melting point: 109 to 110 °C

compound: CNC(=O)N1N=C(c2ccc([N+](=O)[O-])cc2)c2cc(Cl)c(Cl)cc2CC1C (stereo not given)
melting point: 221 to 223 °C

compound: Cc1ccc(-c2nc(C)c(C)c(Cl)n2)cc1
melting point: 165 °C

compound: CCN(CC)C(=O)n1c(SC(F)(F)C(F)F)nc(-c2ccccc2)c1-c1ccccc1
melting point: 108 to 109 °C

compound: CCOC(=NC(=O)NC)N1Cc2ccccc2-c2ccccc2C1
melting point: 137 to 139 °C

compound: Cc1nn(C)c(Oc2ccc([N+](=O)[O-])cc2[N+](=O)[O-])c1C(=O)c1ccc(Cl)cc1Cl
melting point: 190 to 192 °C

compound: CC(C)C(=O)Oc1ccc2c(c1)CCC1C2CCC2(C)C1CC(O[Si](C)(C)C(C)(C)C)C2OC(=O)C(C)C (stereo not given)
melting point: 114 °C

Data origin, for the record: a melting point compilation (Tetko et al.; mined from patent text by program, amines drawn as free bases though some values may be those of a salt)
